TESTED TARGET: T1, BS69CC-MYND (BS69 amino acid 480–602, CC-MYND domain) (Homo sapiens, UniProt Q15326)
T1 construct: The BS69 CC-MYND domain (amino acids 480–602) was amplified from pCI-BS69; GST (N, cleaved yes); 6xHis (N, cleaved yes); made in house; host or cells: E. coli Rosetta 2 (DE3) pLysS
T1 sequence (Q15326 480-602): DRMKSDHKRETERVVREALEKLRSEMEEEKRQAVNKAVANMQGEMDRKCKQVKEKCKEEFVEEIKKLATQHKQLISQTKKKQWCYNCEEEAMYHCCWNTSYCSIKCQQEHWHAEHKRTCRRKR
EXPERIMENT NOTES: Isothermal titration calorimetry (ITC) of EBNA2 peptides and polypeptides binding to BS69CC-MYND
TEST SETTINGS: 25°C, pH 7.5, peptides 13 injections, polypeptides 19 injections, mean ± SD of 3 independent experiments
PROPERTY NAME: ΔG, one-site model (kcal/mol)

[[record]]
molecule = "T2 EBNA2_348-422: type 2 EBNA2 polypeptide containing motif 1, 2 and 3, amino acids 348–422 (protein, left off: His6, N-terminal, cleaved) SMPQLSPVVSLHQGQGPENSPTPGPSTAGPVCRVTPSATPDISPIHEPESSDSEEPPFLFPSDWYPPTLEPAELD"
property_name = "ΔG, one-site model"
test_value = -8.20

[[record]]
molecule = "T2 EBNA2_348-422 m3 T1: T2 EBNA2_348-422 with motif 3 PTLEP replaced with the type 1 sequence PSIDP (protein, left off: His6, N-terminal, cleaved) SMPQLSPVVSLHQGQGPENSPTPGPSTAGPVCRVTPSATPDISPIHEPESSDSEEPPFLFPSDWYPPSIDPAELD"
property_name = "ΔG, one-site model"
test_value = -7.80

[[record]]
molecule = "T2 EBNA2_348-422 motif 3 mt: T2 EBNA2_348-422 with motif 3 mutated from PTLEP to ATAEA (protein, left off: His6, N-terminal, cleaved, T2 EBNA2_348-422 with motif 3 mutated from PTLEP to ATAEA) SMPQLSPVVSLHQGQGPENSPTPGPSTAGPVCRVTPSATPDISPIHEPESSDSEEPPFLFPSDWYPATAEAAELD"
property_name = "ΔG, one-site model"
test_value = -8.50

[[record]]
molecule = "T2 EBNA2_348-412: type 2 EBNA2 polypeptide, amino acids 348–412, expressed and purified from E.coli (protein, left off: His6, N-terminal, cleaved, type 2 EBNA2 polypeptide, amino acids 348–412, expressed and purified from E.coli) SMPQLSPVVSLHQGQGPENSPTPGPSTAGPVCRVTPSATPDISPIHEPESSDSEEPPFLFPSDWY"
property_name = "ΔG, one-site model"
test_value = -8.08

